- Tested on: Mycoplasmoides pneumoniae
- assay-remarks: Antimicrobial activity against macrolide-resistant Mycoplasma pneumoniae with 23S rRNA A2064G mutant isolate 4
- Format: functional
The reader will find reported MIC values listed item by item below.

compound	display-unit	MIC
CN(C)c1ccc(O)c2c1C[C@H]1C[C@H]3[C@H](N(C)C)C(O)=C(C(N)=O)C(=O)[C@@]3(O)C(O)=C1C2=O	µg/mL	0.25
COc1c(N2CCNC(C)C2)c(F)cc2c(=O)c(C(=O)O)cn(C3CC3)c12 (stereo not given)	µg/mL	0.031
CC[C@H]1OC(=O)[C@H](C)[C@@H](O[C@H]2C[C@@](C)(OC)[C@@H](O)[C@H](C)O2)[C@H](C)[C@@H](O[C@@H]2O[C@H](C)C[C@H](N(C)C)[C@H]2O)[C@](C)(OC)C[C@@H](C)C(=O)[C@H](C)[C@@H](O)[C@]1(C)O	µg/mL	8
C[C@H]1NCc2cc(-c3ccc4c(=O)c(C(=O)O)cn(C5CC5)c4c3OC(F)F)ccc21	µg/mL	0.016
C[C@H]1COc2c(N3CCN(C)CC3)c(F)cc3c(=O)c(C(=O)O)cn1c23.C[C@H]1COc2c(N3CCN(C)CC3)c(F)cc3c(=O)c(C(=O)O)cn1c23.O	µg/mL	0.25

----------
Readings of log10 MIC for the listed molecules
- System: Mycoplasmoides pneumoniae
- assay-remarks: Antimicrobial activity against macrolide-resistant Mycoplasma pneumoniae with 23S rRNA A2063G mutant isolate 6
- Assay type: functional
property-name: log10 MIC (log10 of the value in µg/mL)

molecule	target	property-name	meas-value
CN(C)c1ccc(O)c2c1C[C@H]1C[C@H]3[C@H](N(C)C)C(O)=C(C(N)=O)C(=O)[C@@]3(O)C(O)=C1C2=O	Mycoplasmoides pneumoniae	log10 MIC	-0.60
C[C@H]1NCc2cc(-c3ccc4c(=O)c(C(=O)O)cn(C5CC5)c4c3OC(F)F)ccc21	Mycoplasmoides pneumoniae	log10 MIC	-1.51
C[C@H]1COc2c(N3CCN(C)CC3)c(F)cc3c(=O)c(C(=O)O)cn1c23.C[C@H]1COc2c(N3CCN(C)CC3)c(F)cc3c(=O)c(C(=O)O)cn1c23.O	Mycoplasmoides pneumoniae	log10 MIC	-0.30
CC[C@H]1OC(=O)[C@H](C)[C@@H](O[C@H]2C[C@@](C)(OC)[C@@H](O)[C@H](C)O2)[C@H](C)[C@@H](O[C@@H]2O[C@H](C)C[C@H](N(C)C)[C@H]2O)[C@](C)(OC)C[C@@H](C)C(=O)[C@H](C)[C@@H](O)[C@]1(C)O	Mycoplasmoides pneumoniae	log10 MIC	1.51
COc1c(N2CCNC(C)C2)c(F)cc2c(=O)c(C(=O)O)cn(C3CC3)c12 (stereo not given)	Mycoplasmoides pneumoniae	log10 MIC	-1.20

----------
Reported MIC values follow for various compounds
- Tested on: Mycoplasmoides pneumoniae
- assay-remarks: Antimicrobial activity against macrolide-susceptible Mycoplasma pneumoniae FH
- Assay type: functional

compound	target	MIC, mg/L
CC[C@H]1OC(=O)[C@H](C)[C@@H](O[C@H]2C[C@@](C)(OC)[C@@H](O)[C@H](C)O2)[C@H](C)[C@@H](O[C@@H]2O[C@H](C)C[C@H](N(C)C)[C@H]2O)[C@](C)(OC)C[C@@H](C)C(=O)[C@H](C)[C@@H](O)[C@]1(C)O [CLARITHROMYCIN]	Mycoplasmoides pneumoniae	0.004
CN(C)c1ccc(O)c2c1C[C@H]1C[C@H]3[C@H](N(C)C)C(O)=C(C(N)=O)C(=O)[C@@]3(O)C(O)=C1C2=O [MINOCYCLINE]	Mycoplasmoides pneumoniae	0.5
C[C@H]1NCc2cc(-c3ccc4c(=O)c(C(=O)O)cn(C5CC5)c4c3OC(F)F)ccc21 [GARENOXACIN]	Mycoplasmoides pneumoniae	0.016
COc1c(N2CCNC(C)C2)c(F)cc2c(=O)c(C(=O)O)cn(C3CC3)c12 (stereo not given) [GATIFLOXACIN]	Mycoplasmoides pneumoniae	0.063
C[C@H]1COc2c(N3CCN(C)CC3)c(F)cc3c(=O)c(C(=O)O)cn1c23.C[C@H]1COc2c(N3CCN(C)CC3)c(F)cc3c(=O)c(C(=O)O)cn1c23.O [LEVOFLOXACIN]	Mycoplasmoides pneumoniae	0.5

----------
- Tested on: Mycoplasmoides pneumoniae
- assay-remarks: Antimicrobial activity against macrolide-resistant Mycoplasma pneumoniae with 23S rRNA A2063G mutant isolate 1
- Type: functional

molecule	target	MIC
C[C@H]1COc2c(N3CCN(C)CC3)c(F)cc3c(=O)c(C(=O)O)cn1c23.C[C@H]1COc2c(N3CCN(C)CC3)c(F)cc3c(=O)c(C(=O)O)cn1c23.O	Mycoplasmoides pneumoniae	0.25 µg/mL
C[C@H]1NCc2cc(-c3ccc4c(=O)c(C(=O)O)cn(C5CC5)c4c3OC(F)F)ccc21	Mycoplasmoides pneumoniae	0.016 µg/mL
CN(C)c1ccc(O)c2c1C[C@H]1C[C@H]3[C@H](N(C)C)C(O)=C(C(N)=O)C(=O)[C@@]3(O)C(O)=C1C2=O	Mycoplasmoides pneumoniae	0.25 µg/mL
COc1c(N2CCNC(C)C2)c(F)cc2c(=O)c(C(=O)O)cn(C3CC3)c12 (stereo not given)	Mycoplasmoides pneumoniae	0.031 µg/mL
CC[C@H]1OC(=O)[C@H](C)[C@@H](O[C@H]2C[C@@](C)(OC)[C@@H](O)[C@H](C)O2)[C@H](C)[C@@H](O[C@@H]2O[C@H](C)C[C@H](N(C)C)[C@H]2O)[C@](C)(OC)C[C@@H](C)C(=O)[C@H](C)[C@@H](O)[C@]1(C)O	Mycoplasmoides pneumoniae	32 µg/mL
